Sourced from PubChem BioAssay

System: Aerobactin synthetase IucA (Klebsiella pneumoniae hvKP1)
Experiment: Biochemical IucA enzyme inhibition primary screen of the Spectrum library (AID 1346200);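 further: 100% = wells without compound and 0% = wells lacking enzyme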
Conditions: malachite green pyrophosphate, A620, at 8 µM, stronger effect = lower value
Collected activity remaining values appear next to each entry.
recorded_endpoint: activity remaining (%)

- Cc1ccc(S(=O)(=O)NC(=O)NN2CC3CCCC3C2)cc1 (configuration not stated): 121
- COc1cc(O)c2c(=O)cc(C)oc2c1CC=C(C)C: 83.4
- COc1cc2c(cc1-c1cc3cc4ccoc4cc3oc1=O)OCO2: 113
- CC(=O)c1cc2c(cc1O)OC(C)(C)C=C2: 96.6
- CCN(Cc1ccncc1)C(=O)C(CO)c1ccccc1 (configuration not stated): 98.9
- N[C@@H](Cc1ccc(O)c(O)c1)C(=O)O: 115
- COC1C(O)C(O[C@H]2CC[C@]3(C=O)C4C(CC[C@]3(O)C2)[C@@]2(O)CC[C@H](C3=CC(=O)OC3)[C@@]2(C)C[C@H]4OC(C)=O)OC(C)C1OC(C)=O (some centres not stated): 122
- CC(C)(C(=O)O)c1ccc(C(O)CCCN2CCC(C(O)(c3ccccc3)c3ccccc3)CC2)cc1 (configuration not stated): 113
- COc1ccc2c3c1O[C@H]1C[C@@H](O)C=C[C@@]31CCN(C)C2: 103
- CC1CC[C@@]2(OC1)O[C@H]1CC3C4CC[C@@H]5C[C@@H](O)CC[C@]5(C)C4CC[C@]3(C)[C@H]1[C@@H]2C (some centres not stated): 111
- O=c1c(O)cccc2c([C@H]3Oc4cc(O)cc(O)c4C[C@@H]3O)cc(O)c(O)c12: 99.4
- COc1ccc(CCN(C)CCCC(C#N)(c2ccc(OC)c(OC)c2)C(C)C)cc1OC (configuration not stated): 97.5
- CC1CCc2cc(F)cc3c(=O)c(C(=O)O)cn1c23 (configuration not stated): 119
- COc1ccc(OC)c(C(O)C(C)N)c1 (configuration not stated): 103
- Cc1cc(=O)[nH]c(=S)[nH]1: 95.7
- CC(=O)N=c1sc(S(N)(=O)=O)nn1C: 86.3
- CN1CCC(=C2c3ccccc3CCc3sccc32)CC1: 123
- COC(=O)COc1ccc(Cl)cc1Cl: 109
- CC(CCC(=O)O)[C@H]1CCC2C3C(C[C@H](O)[C@@]21C)[C@@]1(C)CC[C@@H](O)C[C@H]1C[C@H]3O (some centres not stated): 99.6
- CC(=O)O[C@@H]1C[C@@]2(C)[C@H](c3ccoc3)C[C@H]3O[C@]32[C@]2(C)C(=O)C(O)=C3C(C)(C)C(=O)C=C[C@]3(C)C12 (some centres not stated): 102
- COc1cc(OC)c(-c2c(OC)cc(OC)cc2OC)c(OC)c1: 106
- CCCC(=O)O[C@]1(C(=O)CO)CCC2[C@@H]3CCC4=CC(=O)CC[C@]4(C)C3[C@@H](O)C[C@@]21C (some centres not stated): 79
- COC(=O)C(N)CS (configuration not stated): 122
- C=CCN1CC[C@]23c4c5ccc(O)c4OC2C(=O)CC[C@@]3(O)[C@H]1C5 (some centres not stated): 92.9
- Cc1c(S(=O)(=O)O)oc2c1C(=O)C(=O)c1c-2ccc2c1CCCC2(C)C: 127
- CC(=O)C1CC[C@H]2C3CC[C@H]4C[C@H](O)CC[C@]4(C)C3CC[C@]12C (some centres not stated): 93.6
- O=c1c(O)c(-c2ccccc2)oc2ccccc12: 92.5
- C[C@@H]1CC[C@]2(C(=O)O)CC[C@]3(C)C(=CCC4[C@@]5(C)CC[C@H](O)C(C)(C)C5CC[C@]43C)C2[C@H]1C (some centres not stated): 128
- O=C(O)c1cccnc1C(=O)O: 89.1
- COc1ccc(-c2cc(=O)c3c(O)cc(O)c(-c4cc(-c5cc(=O)c6c(O)cc(O)cc6o5)ccc4OC)c3o2)cc1: 117
- COc1c(O)cc(O)cc1O: 116
- CCCCC(=O)N(Cc1ccc(-c2ccccc2-c2nn[nH]n2)cc1)[C@H](C(=O)O)C(C)C: 121
- COc1cc2c(cc1OC)[C@@]13CCN4CC5=CCOC6CC(=O)N2C1[C@H]6[C@H]5C[C@H]43 (some centres not stated): 105
- CN(C)CCOC(c1ccccc1)c1ccccc1 (tested in a mixture with another compound): 117
- O=C(O)CCCCCCCC(=O)O: 120
- CN(C)CCc1c[nH]c2ccc(C[C@H]3COC(=O)N3)cc12: 112
- CCCCOc1ccc(C(=O)CCN2CCCCC2)cc1: 96.6
- CCC(=O)NCC[C@@H]1CCc2ccc3c(c21)CCO3: 120
- CC(=O)[O][Hg][c]1ccccc1: -6.18
- CCCN(CCC)c1c([N+](=O)[O-])cc(C(F)(F)F)cc1[N+](=O)[O-]: 95.7
- Cc1cc(O)cc(O)c1C(=O)O: 113
- CC(=O)N(O)CCCCCNC(=O)CCC(=O)N(O)CCCCCNC(=O)CCC(=O)N(O)CCCCCN: 117

====

Target: L-lactate dehydrogenase (Plasmodium falciparum (isolate CDC / Honduras)) (UniProt Q27743)
Sequence (Q27743 whole entry, looked up): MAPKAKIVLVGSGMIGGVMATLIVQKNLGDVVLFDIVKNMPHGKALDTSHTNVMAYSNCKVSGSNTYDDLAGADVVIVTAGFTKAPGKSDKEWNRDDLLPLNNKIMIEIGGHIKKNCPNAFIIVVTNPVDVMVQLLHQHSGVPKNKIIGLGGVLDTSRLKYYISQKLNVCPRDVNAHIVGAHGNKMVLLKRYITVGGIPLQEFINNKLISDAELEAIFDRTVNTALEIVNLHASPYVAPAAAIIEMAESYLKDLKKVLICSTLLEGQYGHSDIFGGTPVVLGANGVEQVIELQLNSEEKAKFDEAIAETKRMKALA
Test: PfLDH activity inhibition – cell lysate, 3D7 strain, counter-screen for P. falciparum growth inhibition project (AID 2304);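 further: 0% = vehicle and 100% = reference inhibitor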
Conditions: P. falciparum 3D7 crude extract, LDH APAD/NBT absorbance; at 2 µM; stronger effect = higher value
recorded_endpoint: inhibition (%)

• COc1cc(NC(=O)c2nn(CCCN3CCC4(CC3)C(=O)NCN4c3ccccc3)cc2-c2ccc(Cl)c(Cl)c2)cc(OC)c1OC = 1
• CC(C)CNCc1ccc(-c2ccc(CN(C(=O)Nc3ccccc3)C3CCN(Cc4ccccc4)CC3)cc2)cc1 = -4
• COc1ccc(CC(C)NCC(O)c2cccc(C(F)(F)F)c2)cc1 (centres undefined) = 3
• O=C(/C=C/c1ccccc1Cl)NC1CCC(CN2[C@@H]3CC[C@H]2CC(c2c[nH]c4ccccc24)C3)CC1 (some centres undefined) = 3
• S=C(NCCc1ccc(Cl)cc1)N1CCC(CN2CCC(c3c[nH]c4ccccc34)CC2)CC1 = 0
• CC[C@H]1CN2CC[C@H]1C[C@H]2[C@H](OC(=O)c1ccccc1)c1cc(C#N)nc2ccc(OC)cc12 = -2
• CCC(C)(C)N[C@@H](C)[C@@H](O)c1ccc(C(F)(F)F)cc1 = 2
• CCCCCOc1ccc(CC(C)NCC(O)c2cccc(Cl)c2)cc1 (centres undefined) = 2
• CSc1ccc(C[C@@H](C)NC[C@H](O)c2cccc(Cl)c2)cc1 = 2

====

Experiment: ICB984 medulloblastoma cell growth inhibition, synergistic combos for chromothripsis tumors, cisplatin or BGB combos (AID 1671451);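 further: cells exposed for 96 hours before readout; 0% = vehicle DMSO and 100% = killing by high DMSO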
Settings: ICB984 medulloblastoma cells, drug combinations, BGB IC40 combo, at 0.005 µM, stronger effect = higher value
recorded_endpoint: inhibition (%)

• O=C1CCC[C@@H]2[C@H]3CCCN4CCC[C@@H](CN12)[C@@H]34 = 0.771
• O=c1[nH]c(=O)n(C2OC(CO)C(O)C2O)cc1F (stereo not drawn) = 32
• Cn1c(COP(=O)(NCCBr)NCCBr)cnc1[N+](=O)[O-] = -25.1
• NC(Cc1ccc(N(CCCl)CCCl)cc1)C(=O)O (stereo not drawn) = -22.4
• CCC1(c2ccccc2)C(=O)NC(=O)NC1=O = -9.29
• COc1cc(C2c3cc4c(cc3C(O)C3COC(=O)C23)OCO4)cc(OC)c1OC (stereo not drawn) = 19.6
• CN(C)NC(=O)CCC(=O)O = -26.9
• CC1(C)C(C(=O)Nc2ccc(S(=O)(=O)c3ccc(NC(=O)C4C(C)(C)C4(C)C)cc3)cc2)C1(C)C = -21.6

====

Experiment: inhibition of 3D7 malaria parasite growth – strain 3D7 (AID 2306);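 further: 0% = DMSO wells and 100% = chloroquine plus artemisinin control wells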
Details: P. falciparum 3D7 erythrocytic growth, LDH absorbance, 72 h; at 2 µM; stronger effect = higher value
Collected growth inhibition values appear next to each entry.
recorded_endpoint: growth inhibition (%)

- O=C(/C=C/c1ccc(Cl)c(Cl)c1)N1CCC(CN2CCC(c3cn(CC(=O)N4CCCCC4)c4ccccc34)CC2)CC1: 100
- COc1ccc(CC(C)NCC(O)c2cccc(Cl)c2)cc1C (stereo not given): 89
- COc1ccc(NC(=S)NC(NC(=O)CF)C(Cl)(Cl)Cl)cc1[N+](=O)[O-] (stereo not given): 97
- C/C=C1\CN2CC[C@H]1C[C@@H]2[C@@H](O)c1ccnc2ccc(O)cc12: 98
- CCN1CC=C(c2c[nH]c3ccccc23)CC1: 84

====

Assay: inhibitors of mitochondrial cytochrome c release, biochemical, purified mitochondria (AID 1603);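 further: mouse liver mitochondria challenged with calcium chloride; signal normalized to the plate average as 100%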
Details: stronger effect = lower value
Please respond with MET when measured cytochrome c release ratio is strictly beneath 1, and with NOT MET in all other cases.

* O=c1oc2ccccc2c(O)c1Cc1c(O)c2ccccc2oc1=O | MET
* CN(C)[C@@H]1C(=O)C(C(N)=O)=C(O)[C@@]2(O)C(=O)C3=C(O)c4c(O)cccc4[C@@](C)(O)[C@H]3C[C@@H]12 | NOT MET
* Clc1ccc(COC(Cn2ccnc2)c2ccc(Cl)cc2Cl)cc1 (stereo not given) | MET
* O=C1Nc2ccc(Cl)cc2C(c2ccccc2Cl)=NC1O (stereo not given) | NOT MET
